// provenance: paper PMC10322702

target: SARS-CoV-2 M^pro (Severe acute respiratory syndrome coronavirus 2); assay: biochemical; type: biochemical
Numbered stars: 1 amine (or outer) side, 2 acyl side, 3 side chain; on linkers, the order of the positions; unused ones are H or OH. Bridge positions count the residues as written; N and C are the ends. Square brackets hold non-standard residues; d marks the D form. Peptide text beside a SMILES is read from it. Acbc(cis-1,3) = O=C([C@H]1C[C@@H](N[*:1])C1)[*:2]
measured attribute: inhibition at 8.32 µM
Respond with a number, then the unit of measure.

inhibition at 8.32 µM value, target or system SARS-CoV-2 M^pro (Severe acute respiratory syndrome coronavirus 2), for CC[C@H](C)[C@@H]1NC(=O)[C@H](CO)NC(=O)[C@H](Cc2ccccc2)NC(=O)[C@H]2C[C@H](C2)NC(=O)[C@H](Cc2c[nH]cn2)NC(=O)[C@H](Cc2ccccc2)NC(=O)[C@@H](Cc2ccc(O)cc2)NC(=O)CSC[C@H](C(N)=O)NC(=O)[C@H](CC(C)C)NC(=O)[C@H](CCCNC(=N)N)NC(=O)[C@H](Cc2ccc(O)cc2)NC(=O)[C@H](CCCNC(=N)N)NC(=O)[C@H](Cc2ccccc2)NC1=O [GM2] ({CH2CO}-[dY]FH[Acbc(cis-1,3)]FSIFRYRL[dC]-NH2; thioether N-13) : 96.8%
